Reference source: ChEMBL document CHEMBL1142519

Each entry below carries its reported selectivity ratio.
# Protocol notes: Selectivity index, ratio of IC50 for rat L6 cells to IC50 for Leishmania donovani MHOM/SD/62/1S-CL2D
# Type: toxicity, cell-based
# Conditions used: read-out: Ratio IC50
// no unit, no text: just the number

Molecule smiles: c1ccc2[nH]c(-c3ccc4oc(-c5ccc(C6=NCCN6)cc5)cc4c3)nc2c1
Result number: 1

Would you kindly look at the next entry?
selectivity ratio in this record for COc1ccc(C2=NCCN2)cc1-c1cc2ccc(C3=NCCN3)cc2o1 : 0.3

###

# Protocol notes: Selectivity index, ratio of IC50 for rat L6 cells to IC50 for Leishmania donovani MHOM/SD/62/1S-CL2D
# Format: toxicity, cell-based
# Conditions used: read-out: Ratio IC50
Mark Met for reported selectivity ratio of 9 or greater; mark Not met for anything smaller.

Please review the entries below; each comes with its answer.
Molecule smiles: N=C(N)c1ccc(-c2cc3cc(C(=N)N)ccc3o2)c(O)c1
Qualitative label: Met
//
Molecule smiles: COc1cc(C(=N)N)cc2cc(-c3ccc(C(=N)N)cc3)oc12
Qualitative label: Met
//
Molecule smiles: c1cc(C2=NCCN2)cc(-c2cc3ccc(C4=NCCN4)cc3o2)c1
Qualitative label: Not met
//
Molecule smiles: COc1cc(C(=N)N)ccc1-c1cc2ccc(C(=N)N)cc2o1
Qualitative label: Met

Please indicate if the recorded selectivity ratio for c1ccc2[nH]c(-c3ccc(-c4cc5cc(-c6nc7ccccc7[nH]6)ccc5o4)cc3)nc2c1 meets or exceeds 9.
Not met

Please check the record c1cc(C2=NCCN2)cc(-c2cc3cc(C4=NCCN4)ccc3o2)c1 and state if its selectivity ratio is at or above 9.
Not met

Reported selectivity ratio at or above 9? N=C(N)c1ccc(-c2cc3cc(C(=N)N)cc(O)c3o2)cc1
Met

# check: selectivity ratio of Oc1cc(C2=NCCN2)ccc1-c1cc2ccc(C3=NCCN3)cc2o1 is greater than or equal to 9
Met

###

Items are presented alongside their recorded Survival.
# Tested on: Trypanosoma brucei rhodesiense
# Protocol notes: Antitrypanosomal activity against Trypanosoma brucei rhodesiense STIB 900 infected acute mouse model assessed as survival time at 1 mg/kg, ip administered daily for 4 days
# Type: functional
# Conditions used: route intraperitoneal

Answered cases to consult:
Compound: Nc1nc(N)nc(Nc2ccc([As]3SCC(CO)S3)cc2)n1 (stereo not drawn)
Result: >51.5 days
--
Compound: CC(C)NC(=N)c1ccc(-c2cc3cc(C(=N)NC(C)C)cc(O)c3o2)cc1
Result: >19.8 days

Next, consider the following compound.
Survival recorded for this compound, CC(C)NC(=N)c1ccc(-c2cc3ccc(C(=N)NC(C)C)cc3o2)c(O)c1 , is >46.5 days

###

Measured selectivity ratio, listed per entry for reference.
# Protocol notes: Selectivity index, ratio of IC50 for rat L6 cells to IC50 for Leishmania donovani MHOM/SD/62/1S-CL2D
# Type: toxicity, cell-based
# Conditions used: read-out: Ratio IC50
Kindly provide the number alone.

Some compounds with known selectivity ratio results, for comparison:
Molecule smiles: N=C(N)c1ccc(-c2cc3cc(C(=N)N)cc(O)c3o2)c(O)c1
selectivity ratio: 0.2
//
Molecule smiles: COc1cc(C(=N)NC(C)C)ccc1-c1cc2cc(C(=N)NC(C)C)ccc2o1
selectivity ratio: 67
//
Molecule smiles: COc1cc(C2=NCCN2)ccc1-c1cc2cc(C3=NCCN3)ccc2o1
selectivity ratio: 0.1
//
Molecule smiles: COc1cc(C2=NCCN2)cc2cc(-c3ccc(C4=NCCN4)cc3)oc12
selectivity ratio: 5
//
Molecule smiles: Oc1ccc(C2=NCCN2)cc1-c1cc2cc(C3=NCCN3)ccc2o1
selectivity ratio: 4

Reported selectivity ratio for COc1ccc(C(=N)N)cc1-c1cc2cc(C(=N)N)ccc2o1 was 31

// selectivity ratio value for Oc1cc(C2=NCCN2)ccc1-c1cc2cc(C3=NCCN3)ccc2o1 : 26

Value of measured selectivity ratio for the entry COc1ccc(C(=N)N)cc1-c1cc2ccc(C(=N)N)cc2o1 : 36
